Test system: CHRF288-11
Type: cell-based
Conditions: Homo sapiens, 72 h, read-out: IC50 CHRF288-11, 72 h, Cell Titer Glo
quantityMeasured: IC50 (nM)

In [3]: df
Out[3]:
                                  cpdsmiles  resultunit  measuredvalue
0  N#CC[C@H](C1CCCC1)n1cc(-c2ncnc3[nH]ccc23)cn1          nM            143

====

The reader will find reported EC50 values listed item by item below.
System: CHRF288-11
Assay: cells
Set-up: species or system AML cell lines (8); Secondary HTS, 10-point dose-response in triplicate, Cell Titer Glo viability, four-parameter fit EC50
Settings: 72 h, read-out: CHRF288-11
quantityMeasured: EC50

compound	measurementTarget	measuredValue
CNC(=O)c1ccccc1Nc1nc(Nc2ccc(N3CCOCC3)cc2OC)ncc1Cl [SJ000822451, NVP-TAE226]	CHRF288-11	9.8 µM
CCC1(c2ccc(N)cc2)CCC(=O)NC1=O (stereo not drawn) [AMINOGLUTETHIMIDE]	CHRF288-11	> 10 µM
CC(C(=O)Nc1cccc(/N=C/c2c(O)ccc3ccccc23)c1)c1ccccc1 (stereo not drawn) [SALERMIDE]	CHRF288-11	> 10 µM
CN[C@@H]1C[C@H]2O[C@@](C)([C@@H]1OC)n1c3ccccc3c3c4c(c5c6ccccc6n2c5c31)C(=O)N[C@H]4O [SJ000784325, 7-HYDROXYSTAUROSPORINE]	CHRF288-11	0.35 µM
Nc1nc(=O)n([C@H]2C[C@H](O)[C@@H](CO)O2)cc1F [SJ000785889, 5-FLUORODEOXYCYTIDINE]	CHRF288-11	3.17 µM
N[C@@H]1CCCN(c2c(/C=C3\SC(=O)NC3=O)cccc2-c2ccccc2)C1 [SJ000833889, AZD1208]	CHRF288-11	> 10 µM
O=C(O)CNC(=O)C(=O)O [N-OXALYLGLYCINE]	CHRF288-11	> 10 µM
CO[C@@H](C(=O)N1Cc2n[nH]c(NC(=O)c3ccc(N4CCN(C)CC4)cc3)c2C1)c1ccccc1 [DANUSERTIB]	CHRF288-11	> 10 µM
Nc1nccc2c1ncn2[C@@H]1C=C(CO)[C@@H](O)[C@H]1O [SJ000785904, 3-DEAZANEPLANOCIN]	CHRF288-11	1.8 µM
COc1cc2ncnc(-n3nc(-c4ccccn4)nc3N)c2cc1OC [SJ000510891, CP-466722]	CHRF288-11	> 10 µM
CCCCNc1ncc2c(-c3ccc(CN4CCN(C)CC4)cc3)cn(C3CCC(O)CC3)c2n1 (stereo not drawn) [SJ000821849, UNC2025A]	CHRF288-11	6.4 µM
N[C@@H]1C[C@H]1c1ccccc1 (racemic) [SJ000286124, TRANYLCYPROMINE]	CHRF288-11	> 10 µM
COCCCn1c(N)c(C(=O)NC2CCCC2)c2nc3ccccc3nc21 [SJ000479457, CAY10591]	CHRF288-11	> 10 µM
CCNC(=O)C[C@@H]1N=C(c2ccc(Cl)cc2)c2cc(OC)ccc2-n2c(C)nnc21 [SJ000574791, I-BET-762]	CHRF288-11	> 10 µM
CN(C)CC(=O)Nc1ccc2[nH]c(=O)c3ccccc3c2c1 [SJ000784265, PJ34]	CHRF288-11	> 10 µM
OC[C@H]1NC[C@H](O)[C@@H](O)[C@H]1O	CHRF288-11	> 10 µM
CCOC(=O)C1=C(C)NC2=C(C(=O)CC(C)(C)C2)C1c1ccc(-c2ccccc2)cc1 (stereo not drawn) [SJ000834140, ITD-1]	CHRF288-11	> 10 µM
CCN(CCCOc1ccc2c(Nc3cc(CC(=O)Nc4cccc(F)c4)n[nH]3)ncnc2c1)CCOP(=O)(O)O [barasertib]	CHRF288-11	> 10 µM
COc1ccc2nc3n[nH]c(C)c3c(NCCOCCO)c2c1 [SJ000832935, SCH 51344]	CHRF288-11	> 10 µM
Cc1ccccc1-n1c(Cn2cnc3c(N)ncnc32)nc2cccc(C)c2c1=O [SJ000571308, IC-87114]	CHRF288-11	> 10 µM
Cc1cc(C(C)Nc2ccccc2)c2nc(N3CCOCC3)cc(=O)n2c1 (stereo not drawn) [SJ000803731, TGX-221]	CHRF288-11	> 10 µM
CN1c2ccccc2C(=O)N2CCc3c([nH]c4ccccc34)[C@H]21 [EVODIAMINE]	CHRF288-11	> 10 µM
O=c1cc(N2CCOCC2)oc2c(-c3cccc4c3sc3ccccc34)cccc12 [SJ000834137, NU 7441]	CHRF288-11	> 10 µM
O=C1Nc2ccc(I)cc2/C1=C/c1cc(Br)c(O)c(Br)c1 [SJ000287883, GW 5074]	CHRF288-11	> 10 µM
Cc1c(Cn2c(C)nc3c(C(=O)O)cc(N4CCOCC4)cc32)cccc1C(F)(F)F [GSK-2636771]	CHRF288-11	> 10 µM
Cc1cc([C@@H](C)Nc2ccccc2C(=O)O)c2nc(N3CCOCC3)cc(=O)n2c1 [AZD6482]	CHRF288-11	> 10 µM
C[C@]1(c2nc3c(C(N)=O)cccc3[nH]2)CCCN1 [VELIPARIB]	CHRF288-11	> 10 µM
COC(=O)[C@H](CC(C)C)NC(=O)c1ccc(NC[C@@H](N)CS)cc1-c1cccc2ccccc12 [SJ000821624, GGTI 298]	CHRF288-11	> 10 µM
FC(F)c1nc2ccccc2n1-c1nc(N2CCOCC2)nc(N2CCOCC2)n1 [ZSTK-474]	CHRF288-11	> 10 µM
COC(=O)/C=C/C(=O)OC [SJ000784308, BG-12]	CHRF288-11	> 10 µM
CC1=C(CC(=O)O)c2cc(F)ccc2/C1=C\c1ccc([S+](C)[O-])cc1 (stereo not drawn)	CHRF288-11	> 10 µM
CS(=O)(=O)c1ccc(C(=O)Nc2ccc(Cl)c(-c3ccccn3)c2)c(Cl)c1 [VISMODEGIB]	CHRF288-11	> 10 µM
CNCc1ccc(-c2[nH]c3cc(F)cc4c3c2CCNC4=O)cc1 [RUCAPARIB]	CHRF288-11	> 10 µM

These entries and their values trace back to paper PMC6522510.
